MIC overview
system: Mycobacterium tuberculosis; experiment: Antimycobacterial activity against Mycobacterium tuberculosis H37Ra after 5 days by two-fold dilution method; format: functional; conditions: 120 h

compound: CCOC(=O)[C@H]1N[C@@H](c2ccc([N+](=O)[O-])cc2)[C@@]2([N+](=O)[O-])C(c3ccc(OC)cc3)Oc3ccccc3[C@@H]12 (relative stereo)
MIC: > 12.5 µg/mL
--
compound: CCOC(=O)[C@H]1N[C@@H](c2ccc(OC)cc2)[C@@]2([N+](=O)[O-])C(c3ccc(OC)cc3)Oc3ccccc3[C@@H]12 (relative stereo)
MIC: > 12.5 µg/mL
--
compound: CCOC(=O)[C@H]1N[C@@H](c2cccc([N+](=O)[O-])c2)[C@@H]([N+](=O)[O-])[C@@H]1c1ccc2c(c1)CCC(C)(C)O2 (relative stereo)
MIC: > 12.5 µg/mL

Source: ChEMBL document CHEMBL3044735
